EXPERIMENT_DESCRIPTION: pKa measurement
Type: physicochemical
TEST_SETTINGS: pKa (first), weak diprotic acid, first value

{"columns": ["MOLECULE", "pKa"],
 "data": [
  ["CC1(C)Cc2c(O)c(C=O)c3c(c2C1)C(=O)OC(O)C3 (stereo not shown)", 5.42]
]}
